Measured target: caspase-8 (Homo sapiens, UniProt Q14790)
Sequence (Q14790 217-374 limits assumed): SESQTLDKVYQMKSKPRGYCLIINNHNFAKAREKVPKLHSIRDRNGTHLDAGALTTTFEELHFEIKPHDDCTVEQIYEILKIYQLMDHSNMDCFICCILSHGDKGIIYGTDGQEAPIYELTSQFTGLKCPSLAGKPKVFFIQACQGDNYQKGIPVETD
Sequence (Q14790 385-479 limits assumed): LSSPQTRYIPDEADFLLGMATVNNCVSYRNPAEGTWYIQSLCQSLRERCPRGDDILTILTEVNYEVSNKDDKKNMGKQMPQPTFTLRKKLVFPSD
Experiment notes: Biochemical inhibition assay, kinact/Ki with AMAC substrate
Experimental parameters: read-out: kinact/Ki C8
Square brackets hold non-standard residues; d marks the D form. Peptide text beside a SMILES is read from it. * marks the point of attachment. AspCH2OCO(5-Me-thien-2-yl) = Cc1ccc(C(=O)OCC(=O)[C@H](CC(=O)O)N*)s1; Phe(F5) = N[C@@H](Cc1c(F)c(F)c(F)c(F)c1F)C(=O)O; X2 = O=C(CCOCCOCCOCCOCCn1cc(CCCF)nn1)*; 3Pal = N[C@@H](Cc1cccnc1)C(=O)O; X1 = O=C(Cn1cc(CCCF)nn1)*; Ahx = NCCCCCC(=O)O
Measurement kind: kinact/KI (M⁻¹ s⁻¹)
Kindly provide the numeric value in M⁻¹ s⁻¹ only, without the unit symbol.

Worked examples follow.
>>> val("Cc1ccc(C(=O)OCC(=O)[C@H](CC(=O)O)NC(=O)[C@H](Cc2ccccc2)NC(=O)[C@H](Cc2c(F)c(F)c(F)c(F)c2F)NC(=O)[C@H](CC(=O)O)NC(=O)[C@H](Cc2cccnc2)NC(=O)CCCCCNC(=O)Cn2cc(CCCF)nn2)s1 [Inhibitor 6] ({X1-Ahx}-[3Pal]D[Phe(F5)]F-{AspCH2OCO(5-Me-thien-2-yl)})")
7700
>>> val("Cc1ccc(C(=O)OCC(=O)[C@H](CC(=O)O)NC(=O)[C@H](Cc2ccccc2)NC(=O)[C@H](Cc2c(F)c(F)c(F)c(F)c2F)NC(=O)[C@H](CC(=O)O)NC(=O)[C@H](Cc2cccnc2)NC(=O)CNC(=O)CNC(=O)CNC(=O)Cn2cc(CCCF)nn2)s1 [Inhibitor 7] (X1-GGG[3Pal]D[Phe(F5)]F-{AspCH2OCO(5-Me-thien-2-yl)})")
15200
>>> val("Cc1ccc(C(=O)OCC(=O)[C@H](CC(=O)O)NC(=O)[C@H](Cc2ccccc2)NC(=O)[C@H](Cc2c(F)c(F)c(F)c(F)c2F)NC(=O)[C@H](CC(=O)O)NC(=O)[C@H](Cc2cccnc2)NC(=O)CCOCCOCCOCCOCCn2cc(CCCF)nn2)s1 [Inhibitor 5] (X2-[3Pal]D[Phe(F5)]F-{AspCH2OCO(5-Me-thien-2-yl)})")
13500
>>> val("Cc1ccc(C(=O)OCC(=O)[C@H](CC(=O)O)NC(=O)[C@H](Cc2ccccc2)NC(=O)[C@H](Cc2c(F)c(F)c(F)c(F)c2F)NC(=O)[C@H](CC(=O)O)NC(=O)[C@H](Cc2cccnc2)NC(=O)Cn2cc(CCCF)nn2)s1 [Inhibitor 8] (X1-[3Pal]D[Phe(F5)]F-{AspCH2OCO(5-Me-thien-2-yl)})")
5600

Consider the record given below.
Exercise: // fetch caspase-8 (Homo sapiens, UniProt Q14790) kinact/KI for Cc1ccc(C(=O)OCC(=O)[C@H](CC(=O)O)NC(=O)[C@H](Cc2ccccc2)NC(=O)[C@H](Cc2c(F)c(F)c(F)c(F)c2F)NC(=O)[C@H](CC(=O)O)NC(=O)[C@H](Cc2cccnc2)NC(=O)CNC(=O)[C@H](CCC(=O)O)NC(=O)CNC(=O)Cn2cc(CCCF)nn2)s1 [Inhibitor 4] (X1-GEG[3Pal]D[Phe(F5)]F-{AspCH2OCO(5-Me-thien-2-yl)})
Solution: 7200
